# protocol text: Clearance in cynomolgus monkey at 0.5 mg/kg, iv
# Format: ADME, organism-based, Macaca fascicularis
# Design: dose 0.5 mg/kg, route intravenous
# stated conditions: in vivo

- given smiles: "COc1cc2nccc(Oc3ccc4c(C(N)=O)cccc4c3)c2cc1OC"
  scale unit: "mL/min/kg"
  clearance: 13

* * *

# experimental system: Tyrosine-protein kinase Fgr (Homo sapiens, UniProt P09769)
# Sequence (P09769 whole entry): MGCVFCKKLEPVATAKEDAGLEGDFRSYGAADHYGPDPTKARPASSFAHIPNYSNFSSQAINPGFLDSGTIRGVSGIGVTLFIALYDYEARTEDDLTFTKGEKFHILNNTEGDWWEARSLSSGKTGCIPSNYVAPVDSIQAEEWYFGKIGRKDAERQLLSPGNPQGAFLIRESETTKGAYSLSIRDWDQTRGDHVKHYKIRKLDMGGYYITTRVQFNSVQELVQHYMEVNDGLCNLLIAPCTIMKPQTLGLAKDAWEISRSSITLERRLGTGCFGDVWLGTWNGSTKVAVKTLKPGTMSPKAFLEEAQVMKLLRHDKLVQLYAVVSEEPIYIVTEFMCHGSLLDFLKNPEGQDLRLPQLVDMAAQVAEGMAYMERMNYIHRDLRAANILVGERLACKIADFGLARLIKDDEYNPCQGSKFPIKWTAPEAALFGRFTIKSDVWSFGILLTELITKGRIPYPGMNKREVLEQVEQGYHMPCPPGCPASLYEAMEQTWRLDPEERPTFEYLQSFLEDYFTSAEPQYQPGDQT
pIC50: −log10 of the molar value.

- given smiles: "COc1cc2nccc(Oc3ccc4c(C(=O)NC5CC5)cccc4c3)c2cc1OC"
  pIC50: 6.40

* * *

Values of pIC50 reported for Aurora kinase A (Homo sapiens, UniProt O14965) appear below.
pIC50: −log10 of the molar value.

- given smiles: "COCCNC(=O)c1cccc2cc(Oc3ccnc4cc(OC)c(OC)cc34)ccc12"
  experimental system: "Aurora kinase A (Homo sapiens, UniProt O14965)"
  pIC50: 5.14
- given smiles: "COCCNC(=O)c1cccc2cc(Oc3ncnc4cc(OC)c(OC)cc34)ccc12"
  experimental system: "Aurora kinase A (Homo sapiens, UniProt O14965)"
  pIC50: 4.60
- given smiles: "CCNC(=O)c1cccc2cc(Oc3ccnc4cc(OC)c(OC)cc34)ccc12"
  experimental system: "Aurora kinase A (Homo sapiens, UniProt O14965)"
  pIC50: 5.82
- given smiles: "COc1cc2nccc(Oc3ccc4c(C(=O)NCC5CC5)cccc4c3)c2cc1OC"
  experimental system: "Aurora kinase A (Homo sapiens, UniProt O14965)"
  pIC50: 6.08
- given smiles: "CCCNC(=O)c1cccc2cc(Oc3ccnc4cc(OC)c(OC)cc34)ccc12"
  experimental system: "Aurora kinase A (Homo sapiens, UniProt O14965)"
  pIC50: 5.77
- given smiles: "COc1cc2nccc(Oc3ccc4c(C(=O)NC5CC5)cccc4c3)c2cc1OC"
  experimental system: "Aurora kinase A (Homo sapiens, UniProt O14965)"
  pIC50: 5.70
- given smiles: "COc1cc2nccc(Oc3ccc4c(C(=O)NC(C)(C)C)cccc4c3)c2cc1OC"
  experimental system: "Aurora kinase A (Homo sapiens, UniProt O14965)"
  pIC50: 5.43
- given smiles: "COc1cc2nccc(Oc3ccc4c(C(=O)Nc5ccc(Cl)cc5)cccc4c3)c2cc1OC"
  experimental system: "Aurora kinase A (Homo sapiens, UniProt O14965)"
  pIC50: 6.43
- given smiles: "COc1cc2nccc(Oc3ccc4c(C(N)=O)cccc4c3)c2cc1OC"
  experimental system: "Aurora kinase A (Homo sapiens, UniProt O14965)"
  pIC50: 5.30
- given smiles: "COCCCNC(=O)c1cccc2cc(Oc3ccnc4cc(OC)c(OC)cc34)ccc12"
  experimental system: "Aurora kinase A (Homo sapiens, UniProt O14965)"
  pIC50: 5.46
- given smiles: "COc1cc2nccc(Oc3ccc4c(C(=O)NC(C)C)cccc4c3)c2cc1OC"
  experimental system: "Aurora kinase A (Homo sapiens, UniProt O14965)"
  pIC50: 5.44

* * *

# protocol text: AUC (0 to 24 hrs) in human HT29 cell xenografted CD1 nu/nu mouse at 10 mg/kg, po qd
# Type: ADME, organism-based, HT-29
# Set-up: time < 24 hr, dose 10 mg/kg, route oral
# stated conditions: in vivo

- given smiles: "COc1cc2nccc(Oc3ccc4c(C(N)=O)cccc4c3)c2cc1OC"
  scale unit: "µM·h"
  AUC at 24 h: 3.9
